target_under_test: human TLR8 (Homo sapiens, UniProt Q9NR97)
Sequence (Q9NR97 27-1041): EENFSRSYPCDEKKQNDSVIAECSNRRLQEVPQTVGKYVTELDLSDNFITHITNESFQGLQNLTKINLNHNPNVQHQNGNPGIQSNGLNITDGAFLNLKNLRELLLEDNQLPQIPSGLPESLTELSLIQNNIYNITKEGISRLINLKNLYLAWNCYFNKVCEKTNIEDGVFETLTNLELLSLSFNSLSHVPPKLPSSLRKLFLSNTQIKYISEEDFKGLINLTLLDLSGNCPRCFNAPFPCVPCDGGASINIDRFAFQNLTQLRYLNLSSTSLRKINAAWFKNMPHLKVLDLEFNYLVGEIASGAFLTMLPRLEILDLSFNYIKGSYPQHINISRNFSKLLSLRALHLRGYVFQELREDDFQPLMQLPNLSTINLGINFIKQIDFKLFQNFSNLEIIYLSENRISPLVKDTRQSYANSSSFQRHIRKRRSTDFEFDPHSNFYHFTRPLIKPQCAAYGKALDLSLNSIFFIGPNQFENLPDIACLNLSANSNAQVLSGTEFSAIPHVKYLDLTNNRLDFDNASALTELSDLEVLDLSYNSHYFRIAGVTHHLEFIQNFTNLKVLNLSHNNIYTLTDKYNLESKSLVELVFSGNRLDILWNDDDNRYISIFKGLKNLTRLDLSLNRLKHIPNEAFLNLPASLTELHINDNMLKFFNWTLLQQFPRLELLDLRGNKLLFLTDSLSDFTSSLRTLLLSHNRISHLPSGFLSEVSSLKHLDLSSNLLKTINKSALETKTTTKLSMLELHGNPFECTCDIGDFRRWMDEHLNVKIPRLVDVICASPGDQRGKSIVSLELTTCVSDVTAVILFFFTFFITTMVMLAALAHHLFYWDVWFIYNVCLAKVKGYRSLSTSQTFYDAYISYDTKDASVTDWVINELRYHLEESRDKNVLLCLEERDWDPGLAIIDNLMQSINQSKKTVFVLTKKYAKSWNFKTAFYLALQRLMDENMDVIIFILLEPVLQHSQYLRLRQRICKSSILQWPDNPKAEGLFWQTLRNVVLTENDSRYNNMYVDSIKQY
procedure_summary: TLR7/8/9 Inhibition Reporter Assays (TLR8)
condition_details: HEK-Blue cells overexpressing human TLR8, SEAP reporter, stimulated with TLR8 ligand R848
Protocol: HEK-Blue™-cells (Invivogen) overexpressing human TLR7, TLR8 or TLR9 receptors were used for screening inhibitors of these receptors using an inducible SEAP (secreted embryonic alkaline phosphatase) reporter gene under the control of the IFN-β minimal promoter fused to five NF-κB and AP-1-binding sites. […] The percent inhibition is determined as the % reduction in the HEK-Blue signal present in wells treated with agonist plus DMSO alone compared to wells treated with a known inhibitor.
experimental_endpoint: IC50 (µM)
Answers are plain numbers, in µM.

// below: answered molecules
chem_smiles | experimental_endpoint | measured_number
Cc1nc(-c2ccc(CN3CCC(N(C)C4CC4)CC3)cc2)cc2c1nc(-c1ccc(S(C)(=O)=O)cc1)n2C | IC50 | 5.5
Cc1nc(-c2ccc(C3CCN(C(C)C)CC3)cc2)cc2c1nc(-c1ccc(S(C)(=O)=O)cc1)n2C | IC50 | 36
CC(C)CN1CC2(CCN(c3ccc(-c4cc5c(cn4)nc(-c4ccc(S(C)(=O)=O)cc4)n5C)cc3)C2)C1 | IC50 | 0.9
Cc1nc(-c2ccc(CCN3CCC(N4CCOCC4)CC3)cc2)cc2c1nc(-c1ccc(S(C)(=O)=O)cc1)n2C | IC50 | 7.6
CC(C)CN1CC2(CCN(c3ccc(-c4cc5c(cn4)nc(-c4ccc(S(C)(=O)=O)cc4)n5C)cc3)CC2)C1 | IC50 | 0.99

Parameter requested: IC50. Apply to each item below.
1. CC(C)N1CC2(CCN(c3ccc(-c4cc5c(cn4)nc(-c4ccc(S(C)(=O)=O)cc4)n5C)cc3)CC2)C1
2. Cc1nc(-c2ccc(N3CCC4(CC3)CN(C(C)C)C4)cc2)cc2c1nc(-c1ccc(S(C)(=O)=O)cc1)n2C
3. Cc1nc(-c2ccc(N3CC4(CCN(C(C)C)CC4)C3)cc2)cc2c1nc(-c1ccc(S(C)(=O)=O)cc1)n2C
4. Cc1nc(-c2ccc(CN3CCC(N(C)C)CC3)cc2)cc2c1nc(-c1ccc(S(C)(=O)=O)cc1)n2C

1. 0.89
2. 6
3. 5.3
4. 4.9

* * *

target_under_test: human TLR7 (Homo sapiens, UniProt Q9NYK1)
Sequence (Q9NYK1 27-1049): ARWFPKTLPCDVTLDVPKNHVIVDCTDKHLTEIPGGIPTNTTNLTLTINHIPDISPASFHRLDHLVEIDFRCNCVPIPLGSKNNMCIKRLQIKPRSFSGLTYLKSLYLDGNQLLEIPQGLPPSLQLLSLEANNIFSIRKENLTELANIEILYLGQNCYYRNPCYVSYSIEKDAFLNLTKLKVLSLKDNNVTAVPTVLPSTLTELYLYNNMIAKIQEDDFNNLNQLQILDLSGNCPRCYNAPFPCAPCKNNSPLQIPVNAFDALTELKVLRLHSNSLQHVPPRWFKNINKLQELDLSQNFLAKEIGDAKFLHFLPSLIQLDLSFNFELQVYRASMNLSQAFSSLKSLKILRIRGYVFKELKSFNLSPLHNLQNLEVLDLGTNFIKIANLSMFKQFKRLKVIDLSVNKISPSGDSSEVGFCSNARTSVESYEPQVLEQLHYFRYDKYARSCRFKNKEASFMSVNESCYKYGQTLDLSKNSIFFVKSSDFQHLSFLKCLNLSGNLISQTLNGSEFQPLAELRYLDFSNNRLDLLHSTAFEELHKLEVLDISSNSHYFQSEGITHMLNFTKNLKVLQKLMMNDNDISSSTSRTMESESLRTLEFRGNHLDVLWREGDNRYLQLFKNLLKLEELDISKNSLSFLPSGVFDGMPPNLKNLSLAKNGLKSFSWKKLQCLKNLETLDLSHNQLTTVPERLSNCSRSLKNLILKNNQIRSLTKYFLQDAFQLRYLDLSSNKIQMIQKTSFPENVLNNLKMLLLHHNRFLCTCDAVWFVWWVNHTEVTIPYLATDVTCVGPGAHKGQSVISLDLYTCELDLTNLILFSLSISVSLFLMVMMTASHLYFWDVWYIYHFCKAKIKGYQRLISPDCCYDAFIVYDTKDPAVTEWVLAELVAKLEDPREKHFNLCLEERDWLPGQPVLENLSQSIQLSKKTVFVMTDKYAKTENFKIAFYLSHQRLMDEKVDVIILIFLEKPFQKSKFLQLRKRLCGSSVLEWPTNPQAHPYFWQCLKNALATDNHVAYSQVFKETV
procedure_summary: TLR7/8/9 Inhibition Reporter Assays (TLR7)
condition_details: HEK-Blue cells overexpressing human TLR7, SEAP reporter, stimulated with TLR7 ligand gardiquimod
Protocol: HEK-Blue™-cells (Invivogen) overexpressing human TLR7, TLR8 or TLR9 receptors were used for screening inhibitors of these receptors using an inducible SEAP (secreted embryonic alkaline phosphatase) reporter gene under the control of the IFN-β minimal promoter fused to five NF-κB and AP-1-binding sites. […] The percent inhibition is determined as the % reduction in the HEK-Blue signal present in wells treated with agonist plus DMSO alone compared to wells treated with a known inhibitor.
Note to self: IC50 under 3000 nM means 1, ties and anything higher get -1.

Reference set, count: 6
compound | assigned_class
Cc1nc(-c2ccc(N3CC4(C3)CN(C3COC3)C4)cc2)cc2c1nc(-c1ccc(S(C)(=O)=O)cc1)n2C [Example 107] | -1
Cc1nc(-c2ccc(C3CCN(C)CC3)cc2)cc2c1nc(-c1ccc(S(C)(=O)=O)cc1)n2C [Example 26] | -1
Cc1nc(-c2ccc(C3CCN(CC4COC4)CC3)cc2)cc2c1nc(-c1ccc(S(C)(=O)=O)cc1)n2C [Example 29] | -1
Cc1nc(-c2ccc(N3CCN(CC(C)(C)O)CC3)cc2)cc2c1nc(-c1ccc(S(C)(=O)=O)cc1)n2C [Example 8] | -1
Cc1nc(-c2ccc(N3C[C@@H]4CN(C5CCC5)C[C@@H]4C3)cc2)cc2c1nc(-c1ccc(S(C)(=O)=O)cc1)n2C [Example 69] | 1
CC(C)N1CCC(N2CC=C(c3cc4c(nc(-c5ccc(S(C)(=O)=O)cc5)n4C)c(C(F)(F)F)n3)CC2)CC1 [Example 35] | -1

Could you please tell me whether IC50 recorded for CC(C)N1CC2(CCN(c3ccc(-c4cc5c(cn4)nc(-c4ccc(S(C)(=O)=O)cc4)n5C)cc3)CC2)C1 [Example 95] is less than 3000 nM?
1

Could you please tell me whether IC50 recorded for COc1ccc(-c2nc3c(C)nc(-c4ccc(N5CCC6(CC5)CN(C5CCC5)C6)cc4)cc3n2C)cc1OC [Example 80] is less than 3000 nM?
1

Could you please tell me whether IC50 recorded for Cc1nc(-c2ccc(N3CCC4(CC3)CN(C(C)C)C4)cc2)cc2c1nc(-c1ccc(S(C)(=O)=O)cc1)n2C [Example 72] is less than 3000 nM?
1

Could you please tell me whether IC50 recorded for Cc1nc(-c2ccc(N3C[C@H]4CN(CC(C)C)C[C@H]4C3)cc2)cc2c1nc(-c1ccc(S(C)(=O)=O)cc1)n2C [Example 68] is less than 3000 nM?
1

Could you please tell me whether IC50 recorded for COc1ccc(-c2nc3c(C)nc(-c4ccc(N5CCC6(CC5)CN(CC(C)C)C6)cc4)cc3n2C)cc1OC [Example 75] is less than 3000 nM?
1

* * *

target_under_test: human TLR9 (Homo sapiens, UniProt Q9NR96)
Sequence (Q9NR96 26-1032): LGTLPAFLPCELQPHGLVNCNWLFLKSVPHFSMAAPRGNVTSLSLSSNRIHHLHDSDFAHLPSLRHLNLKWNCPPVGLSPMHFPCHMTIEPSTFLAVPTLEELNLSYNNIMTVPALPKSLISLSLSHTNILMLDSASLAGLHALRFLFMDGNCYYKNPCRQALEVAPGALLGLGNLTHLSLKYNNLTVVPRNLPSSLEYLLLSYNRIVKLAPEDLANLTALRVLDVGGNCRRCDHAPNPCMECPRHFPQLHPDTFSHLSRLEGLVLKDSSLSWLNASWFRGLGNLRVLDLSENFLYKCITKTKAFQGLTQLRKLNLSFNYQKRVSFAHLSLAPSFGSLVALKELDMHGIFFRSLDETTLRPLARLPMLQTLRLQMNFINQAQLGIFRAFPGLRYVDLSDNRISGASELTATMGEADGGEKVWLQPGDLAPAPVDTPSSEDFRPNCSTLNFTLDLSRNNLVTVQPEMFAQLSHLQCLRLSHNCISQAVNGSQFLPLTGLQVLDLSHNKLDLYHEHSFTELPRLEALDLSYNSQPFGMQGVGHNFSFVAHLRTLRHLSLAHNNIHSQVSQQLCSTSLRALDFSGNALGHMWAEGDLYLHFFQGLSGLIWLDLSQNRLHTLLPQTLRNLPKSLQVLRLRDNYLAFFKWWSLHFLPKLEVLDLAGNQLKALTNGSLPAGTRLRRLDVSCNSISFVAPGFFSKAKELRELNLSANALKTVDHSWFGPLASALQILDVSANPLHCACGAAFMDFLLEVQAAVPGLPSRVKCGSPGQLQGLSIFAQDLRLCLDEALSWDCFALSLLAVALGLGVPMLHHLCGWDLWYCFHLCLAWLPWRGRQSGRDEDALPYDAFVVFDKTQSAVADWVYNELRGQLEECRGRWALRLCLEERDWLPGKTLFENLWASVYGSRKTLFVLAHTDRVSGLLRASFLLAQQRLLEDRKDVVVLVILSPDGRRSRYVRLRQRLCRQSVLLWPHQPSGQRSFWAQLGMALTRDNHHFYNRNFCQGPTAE
procedure_summary: TLR7/8/9 Inhibition Reporter Assays (TLR9)
condition_details: HEK-Blue cells overexpressing human TLR9, SEAP reporter, stimulated with TLR9 ligand ODN2006
experimental_endpoint: IC50 (nM)
Answers are plain numbers, in nM.

chem_smiles | IC50 (nM)
Cn1c(-c2ccc(S(C)(=O)=O)cc2)nc2c(C(F)(F)F)nc(C3=CCN(C4CCN(CC(C)(C)O)CC4)CC3)cc21 | 1100
Cc1nc(-c2ccc(N3CCN(CCCN4CCOCC4)CC3)cc2)cc2c1nc(-c1ccc(S(C)(=O)=O)cc1)n2C | 28
COCCN1CC2(CCN(c3ccc(-c4cc5c(cn4)nc(-c4ccc(S(C)(=O)=O)cc4)n5C)cc3)CC2)C1 | 600
COc1ccc(-c2nc3cnc(-c4ccc(N5CC6(C5)CN(C(C)C)C6)cc4)cc3n2C2CC2)cc1OC | 180
COc1ccc(-c2nc3cnc(-c4ccc(N5CCC6(CC5)CN(C(C)C)C6)cc4)cc3n2C2CC2)cc1OC | 340
COc1ccc(-c2nc3c(C)nc(-c4ccc(N5C[C@@H]6CN(C7CCC7)C[C@@H]6C5)cc4)cc3n2C)cc1OC | 29

In the following, a different compound is considered.
Which measured IC50 value corresponds to `Cc1nc(-c2ccc(C(=O)NC3CN(Cc4ccccc4)C3)cc2)cc2c1nc(-c1ccc(S(C)(=O)=O)cc1)n2C` ?
810

* * *

target_under_test: human TLR7 (Homo sapiens)
procedure_summary: TLR7/8/9 Inhibition Reporter Assays (TLR7)
condition_details: HEK-Blue cells overexpressing human TLR7, SEAP reporter, stimulated with TLR7 ligand gardiquimod
Method: HEK-Blue™-cells (Invivogen) overexpressing human TLR7, TLR8 or TLR9 receptors were used for screening inhibitors of these receptors using an inducible SEAP (secreted embryonic alkaline phosphatase) reporter gene under the control of the IFN-β minimal promoter fused to five NF-κB and AP-1-binding sites. […] The percent inhibition is determined as the % reduction in the HEK-Blue signal present in wells treated with agonist plus DMSO alone compared to wells treated with a known inhibitor.
Note to self: IC50 under 4 µM means MET, ties and anything higher get NOT MET.

Reference set, count: 3
chem_smiles | target_under_test | assigned_class
Cn1c(-c2ccc(S(C)(=O)=O)cc2)nc2c(C(F)(F)F)nc(C3CCN(C4CCN(CC(C)(C)O)CC4)CC3)cc21 | human TLR7 (Homo sapiens) | MET
CC(C)N1CC2(CCN(c3ccc(-c4cc5c(cn4)nc(-c4ccc(S(C)(=O)=O)cc4)n5C4CC4)cc3)CC2)C1 | human TLR7 (Homo sapiens) | NOT MET
CC(C)CN1CC2(C1)CN(c1ccc(-c3cc4c(cn3)nc(-c3ccc(S(C)(=O)=O)cc3)n4C3CC3)cc1)C2 | human TLR7 (Homo sapiens) | NOT MET

Could you please tell me whether IC50 recorded for `COc1ccc(-c2nc3c(C)nc(-c4ccc(N5C[C@@H]6CN(C(C)C)C[C@@H]6C5)cc4)cc3n2C)cc1OC` is less than 4 µM?
MET

Could you please tell me whether IC50 recorded for `COc1ccc(-c2nc3c(C)nc(-c4ccc(N5CCC6(CC5)CN(CC(C)(C)O)C6)cc4)cc3n2C)cc1OC` is less than 4 µM?
MET

Could you please tell me whether IC50 recorded for `COc1ccc(-c2nc3c(C)nc(-c4ccc(N5CCN(CC6CC6)CC5)cc4)cc3n2C)cc1OC` is less than 4 µM?
MET
